- assay.text: The compound was tested for binding affinity against porcine sarcoplasmic reticulum(SR) membrane
result.type: Ki

[[record]]
molecular_string = "[3H]/C(=N\\N1CC(=O)[N-]C1=O)c1ccc(-c2ccc([N+](=O)[O-])cc2)o1.[Na+]"
recorded_result = "1500 nM"


----------
- assay.text: The compound was tested for binding affinity against porcine sarcoplasmic reticulum(SR) membrane in the absence or presence of atropine
pKi: −log10 of the molar value.
result.type: pKi

[[record]]
molecule = "[3H]/C(=N\\N1CC(=O)[N-]C1=O)c1ccc(-c2ccc(N=[N+]=[N-])cc2)o1.[Na+] [[3H]-AZIDODANTROLINE]"
result_type = "pKi"
recorded_result = 4.00


Reference source: ChEMBL document CHEMBL1132159
